Kindly state Serum concentration for each of the entries shown.
assay: Concentration of BRAF/MEK inhibitors in patient serum/plasma by LC-MS/MS; assay type: in vivo, human; conditions: day 7 after treatment initiation; encorafenib/binimetinib given day 1-3 then discontinued, dabrafenib/trametinib from day 4

What value of Serum concentration has been reported for the following molecule? CC(=O)Nc1cccc(-n2c(=O)n(C3CC3)c(=O)c3c(Nc4ccc(I)cc4F)n(C)c(=O)c(C)c32)c1 [Trametinib, trametinib] 7.7 ng/mL

For the molecule Cn1cnc2c(F)c(Nc3ccc(Br)cc3F)c(C(=O)NOCCO)cc21 [Binimetinib, binimetinib] , what Serum concentration is on record? 19.1 ng/mL

For the molecule COC(=O)N[C@@H](C)CNc1nccc(-c2cn(C(C)C)nc2-c2cc(Cl)cc(NS(C)(=O)=O)c2F)n1 [Encorafenib, encorafenib] , what Serum concentration is on record? 5.7 ng/mL

Data request, read-out Serum concentration, for CC(C)(C)c1nc(-c2cccc(NS(=O)(=O)c3c(F)cccc3F)c2F)c(-c2ccnc(N)n2)s1 [Dabrafenib, dabrafenib] 188.0 ng/mL

###

Exercise: state measured Kp for each of the compounds provided.
assay: Concentration of BRAF/MEK inhibitors in patient CSF by LC-MS/MS; type: in vivo, human; details: human, CSF/serum, oral, day 5 after treatment initiation
// return a plain number; no unit text

Tell me the measured Kp of Cn1cnc2c(F)c(Nc3ccc(Br)cc3F)c(C(=O)NOCCO)cc21 , please. 0.107

Item under review: COC(=O)N[C@@H](C)CNc1nccc(-c2cn(C(C)C)nc2-c2cc(Cl)cc(NS(C)(=O)=O)c2F)n1 . Reported Kp? 0.178

# input compound: CC(=O)Nc1cccc(-n2c(=O)n(C3CC3)c(=O)c3c(Nc4ccc(I)cc4F)n(C)c(=O)c(C)c32)c1 ; wanted: its Kp 0

Can you share its Kp? I mean this compound: CC(C)(C)c1nc(-c2cccc(NS(=O)(=O)c3c(F)cccc3F)c2F)c(-c2ccnc(N)n2)s1 0.017

###

assay: Concentration of BRAF/MEK inhibitors in patient CSF by LC-MS/MS; type: in vivo, human; settings: human, CSF/serum, oral, day 8 after treatment initiation
readout: Kp
Answer using only a numeral; do not append any unit.

Return reported Kp; argument: COC(=O)N[C@@H](C)CNc1nccc(-c2cn(C(C)C)nc2-c2cc(Cl)cc(NS(C)(=O)=O)c2F)n1 0.18

Quick check: Kp of Cn1cnc2c(F)c(Nc3ccc(Br)cc3F)c(C(=O)NOCCO)cc21 ? 0.362

Suppose we examine the compound CC(=O)Nc1cccc(-n2c(=O)n(C3CC3)c(=O)c3c(Nc4ccc(I)cc4F)n(C)c(=O)c(C)c32)c1 ; what Kp value has been reported? 0.043

So what's the measured Kp for this one? CC(C)(C)c1nc(-c2cccc(NS(=O)(=O)c3c(F)cccc3F)c2F)c(-c2ccnc(N)n2)s1 0.016

###

For each entry below, report its Kp value.
test: Concentration of BRAF/MEK inhibitors in patient CSF by LC-MS/MS; type: in vivo, human; conditions: human, CSF/serum, oral, day 7 after treatment initiation
Number, no unit, nothing else.

// Kp lookup, key: COC(=O)N[C@@H](C)CNc1nccc(-c2cn(C(C)C)nc2-c2cc(Cl)cc(NS(C)(=O)=O)c2F)n1 0.193

Quick one: Kp of Cn1cnc2c(F)c(Nc3ccc(Br)cc3F)c(C(=O)NOCCO)cc21 ? 0.277

Would you mind telling me what Kp value was observed for CC(=O)Nc1cccc(-n2c(=O)n(C3CC3)c(=O)c3c(Nc4ccc(I)cc4F)n(C)c(=O)c(C)c32)c1 ? 0.039

Which Kp value is on record for CC(C)(C)c1nc(-c2cccc(NS(=O)(=O)c3c(F)cccc3F)c2F)c(-c2ccnc(N)n2)s1 ? 0.032

###

Can you tell me CSF concentration for the items I'm about to list?
test: Concentration of BRAF/MEK inhibitors in patient CSF by LC-MS/MS; assay type: in vivo, human; conditions: day 8 after treatment initiation; CSF via EVD
Give the quantity in ng/mL, number only.

// lookup CSF concentration for Cn1cnc2c(F)c(Nc3ccc(Br)cc3F)c(C(=O)NOCCO)cc21 [Binimetinib, binimetinib] 5.0

If you can, please state the reported CSF concentration value of CC(C)(C)c1nc(-c2cccc(NS(=O)(=O)c3c(F)cccc3F)c2F)c(-c2ccnc(N)n2)s1 [Dabrafenib, dabrafenib] . 1.5

If you can, please state the reported CSF concentration value of CC(=O)Nc1cccc(-n2c(=O)n(C3CC3)c(=O)c3c(Nc4ccc(I)cc4F)n(C)c(=O)c(C)c32)c1 [Trametinib, trametinib] . 0.4

So what does the record say about CSF concentration for COC(=O)N[C@@H](C)CNc1nccc(-c2cn(C(C)C)nc2-c2cc(Cl)cc(NS(C)(=O)=O)c2F)n1 [Encorafenib, encorafenib] ? 1.1
